Some compounds, each annotated with its measured MIC.
Tested on: Escherichia coli ATCC BAA-2523
Type: cell-based
Conditions: ATCC BAA-2523
Bridge positions count the residues as written; N and C are the ends. Square brackets hold non-standard residues; d marks the D form. Peptide text beside a SMILES is read from it. * marks the point of attachment. Dab(CH2SO3H) = N[C@@H](CCNCS(=O)(=O)O)C(=O)O; Heptanoyl(6-Me) = CC(C)CCCCC(=O)*; dDap = NC[C@@H](N)C(=O)O; Dab = NCC[C@H](N)C(=O)O; Dap = NC[C@H](N)C(=O)O
Hi! Could you send only the number? It should be in µg/mL, unit omitted.

CC(C)CCCCC(=O)N[C@@H](CCN)C(=O)N[C@H](C(=O)N[C@H](CN)C(=O)N[C@H]1CCNC(=O)[C@H]([C@@H](C)O)NC(=O)[C@H](CCN)NC(=O)[C@H](CCN)NC(=O)[C@H](CC(C)C)NC(=O)[C@@H](Cc2ccccc2)NC(=O)[C@H](CCN)NC1=O)[C@@H](C)O [Compound 32] ({Heptanoyl(6-Me)}-[Dab]T[dDap][Dab][Dab][dF]L[Dab][Dab]T; lactam 4-C)	0.03

What does the record list as MIC for CC(C)CCCCC(=O)N[C@@H](CCN)C(=O)N[C@H](C(=O)N[C@@H](CN)C(=O)N[C@H]1CCNC(=O)[C@H]([C@@H](C)O)NC(=O)[C@H](CCNCS(=O)(=O)O)NC(=O)[C@H](CCN)NC(=O)[C@H]([C@@H](C)O)NC(=O)[C@@H](Cc2ccccc2)NC(=O)[C@H](CCN)NC1=O)[C@@H](C)O [Compound 120] ({Heptanoyl(6-Me)}-[Dab]T[Dap][Dab][Dab][dF]T[Dab][Dab(CH2SO3H)]T; lactam 4-C) ?
0.06

###

Test system: Escherichia coli ATCC BAA-2523
Format: cell-based
Conditions: ATCC BAA-2523
Bridge positions count the residues as written; N and C are the ends. Square brackets hold non-standard residues; d marks the D form. Peptide text beside a SMILES is read from it. * marks the point of attachment. dOrn = NCCC[C@@H](N)C(=O)O; Nonanoyl = CCCCCCCCC(=O)*; Heptanoyl = CCCCCCC(=O)*; Dab = NCC[C@H](N)C(=O)O; Dap = NC[C@H](N)C(=O)O
Some compounds, each annotated with its measured MIC.
Hi! Could you send only the number? It should be in µg/mL, unit omitted.

Examples with their reported MIC follow.
CCCCCCCCC(=O)N[C@@H](CCN)C(=O)N[C@H](C(=O)N[C@H](CCCN)C(=O)N[C@H]1CCNC(=O)[C@H]([C@@H](C)O)NC(=O)[C@H](CCN)NC(=O)[C@H](CCN)NC(=O)[C@H](CC(C)C)NC(=O)[C@@H](Cc2ccccc2)NC(=O)[C@H](CCN)NC1=O)[C@@H](C)O [Compound 45] (Nonanoyl-[Dab]T[dOrn][Dab][Dab][dF]L[Dab][Dab]T; lactam 4-C)	0.06
CCCCCCCCC(=O)N[C@@H](CCN)C(=O)N[C@H](C(=O)N[C@H](CO)C(=O)N[C@H]1CCNC(=O)[C@H]([C@@H](C)O)NC(=O)[C@H](CN)NC(=O)[C@H](CCN)NC(=O)[C@H]([C@@H](C)O)NC(=O)[C@@H](Cc2ccccc2)NC(=O)[C@H](CCN)NC1=O)[C@@H](C)O [Compound 85] (Nonanoyl-[Dab]T[dS][Dab][Dab][dF]T[Dab][Dap]T; lactam 4-C)	0.25

Could you now consider this next compound?
What does the record list as MIC for CCCCCCC(=O)N[C@@H](CCN)C(=O)N[C@H](C(=O)N[C@@H](CCN)C(=O)N[C@H]1CCNC(=O)[C@H]([C@@H](C)O)NC(=O)[C@H](CCN)NC(=O)[C@H](CCN)NC(=O)[C@H]([C@@H](C)O)NC(=O)[C@@H](Cc2ccccc2)NC(=O)[C@H](CCN)NC1=O)[C@@H](C)O [Compound 19] (Heptanoyl-[Dab]T[Dab][Dab][Dab][dF]T[Dab][Dab]T; lactam 4-C) ?
0.03

###

Some molecules, each annotated with its measured MIC.
System: Pseudomonas aeruginosa ATCC 27853
Format: cell-based
Settings: ATCC 27853
Bridge positions count the residues as written; N and C are the ends. Square brackets hold non-standard residues; d marks the D form. Peptide text beside a SMILES is read from it. * marks the point of attachment. dOrn = NCCC[C@@H](N)C(=O)O; dDab = NCC[C@@H](N)C(=O)O; Heptanoyl = CCCCCCC(=O)*; Octanoyl = CCCCCCCC(=O)*; Orn = NCCC[C@H](N)C(=O)O; Dab = NCC[C@H](N)C(=O)O; Dap = NC[C@H](N)C(=O)O
Hi! Could you send only the number? It should be in µg/mL, unit omitted.

What does the record list as MIC for CCCCCCC(=O)N[C@@H](CCCN)C(=O)N[C@H](C(=O)N[C@H](CO)C(=O)N[C@H]1CCNC(=O)[C@H]([C@@H](C)O)NC(=O)[C@H](CCN)NC(=O)[C@H](CCN)NC(=O)[C@H]([C@@H](C)O)NC(=O)[C@@H](Cc2ccccc2)NC(=O)[C@H](CCN)NC1=O)[C@@H](C)O [Compound 59] (Heptanoyl-[Orn]T[dS][Dab][Dab][dF]T[Dab][Dab]T; lactam 4-C) ?
64

What does the record list as MIC for CCCCCCCC(=O)N[C@@H](CCN)C(=O)N[C@H](C(=O)N[C@H](CCCN)C(=O)N[C@H]1CCNC(=O)[C@H]([C@@H](C)O)NC(=O)[C@H](CCN)NC(=O)[C@H](CCN)NC(=O)[C@H](CC(C)C)NC(=O)[C@@H](Cc2ccccc2)NC(=O)[C@H](CCN)NC1=O)[C@@H](C)O [Compound 43] (Octanoyl-[Dab]T[dOrn][Dab][Dab][dF]L[Dab][Dab]T; lactam 4-C) ?
0.25

What does the record list as MIC for CCCCCCC(=O)N[C@@H](CN)C(=O)N[C@H](C(=O)N[C@H](CCN)C(=O)N[C@H]1CCNC(=O)[C@H]([C@@H](C)O)NC(=O)[C@H](CCN)NC(=O)[C@H](CCN)NC(=O)[C@H](CC(C)C)NC(=O)[C@@H](Cc2ccccc2)NC(=O)[C@H](CCN)NC1=O)[C@@H](C)O [Compound 94] (Heptanoyl-[Dap]T[dDab][Dab][Dab][dF]L[Dab][Dab]T; lactam 4-C) ?
1

###

Test system: Acinetobacter baumannii NCTC 13304 (OXA-27)
Format: cell-based
Settings: NCTC 13304
Numbered stars: 1 amine (or outer) side, 2 acyl side, 3 side chain; on linkers, the order of the positions; unused ones are H or OH. Bridge positions count the residues as written; N and C are the ends. Square brackets hold non-standard residues; d marks the D form. Peptide text beside a SMILES is read from it. * marks the point of attachment. X3 = O=C([C@@H](Cc1ccc(CS(=O)(=O)O)cc1)N[*:1])[*:2]; Heptanoyl(6-Me) = CC(C)CCCCC(=O)*; Sulfomethyl = O=S(=O)(O)C*; dOrn = NCCC[C@@H](N)C(=O)O; X1 = CC[C@H](C)CCCCC(=O)*; dDab = NCC[C@@H](N)C(=O)O; Heptanoyl = CCCCCCC(=O)*; Orn = NCCC[C@H](N)C(=O)O; Dab = NCC[C@H](N)C(=O)O; Dap = NC[C@H](N)C(=O)O
observation_type: MIC

Examples with their reported MIC follow.
CC(C)CCCCC(=O)N[C@@H](CCN)C(=O)N[C@H](C(=O)N[C@@H](CN)C(=O)N[C@H]1CCNC(=O)[C@H]([C@@H](C)O)NC(=O)[C@H](CCN)NC(=O)[C@H](CCN)NC(=O)[C@H]([C@@H](C)O)NC(=O)[C@@H](Cc2ccc(CS(=O)(=O)O)cc2)NC(=O)[C@H](CCN)NC1=O)[C@@H](C)O [Compound 116] ({Heptanoyl(6-Me)}-[Dab]T[Dap][Dab][Dab][X3]T[Dab][Dab]T; lactam 4-C)	0.06 µg/mL
CC[C@H](C)CCCCC(=O)N[C@@H](CCN)C(=O)N[C@H](C(=O)N[C@@H](CCCN)C(=O)N[C@H]1CCNC(=O)[C@H]([C@@H](C)O)NC(=O)[C@H](CCN)NC(=O)[C@H](CCN)NC(=O)[C@H](CC(C)C)NC(=O)[C@@H](Cc2ccccc2)NC(=O)[C@H](CCN)NC1=O)[C@@H](C)O [Compound 46] (X1-[Dab]T[Orn][Dab][Dab][dF]L[Dab][Dab]T; lactam 4-C)	0.06 µg/mL
CC(C)CCCCC(=O)N[C@@H](CCN)C(=O)N[C@H](C(=O)N[C@@H](CN)C(=O)N[C@H]1CCNC(=O)[C@H]([C@@H](C)O)NC(=O)[C@H](CCN)NC(=O)[C@H](CCN)NC(=O)[C@H]([C@@H](C)O)NC(=O)[C@@H](Cc2ccccc2)NC(=O)[C@H](CCN)NC1=O)[C@@H](C)OCS(=O)(=O)O [Compound 113] ({Heptanoyl(6-Me)}-[Dab]T(Sulfomethyl)[Dap][Dab][Dab][dF]T[Dab][Dab]T; lactam 4-C)	0.06 µg/mL
CC[C@H](C)CCCCC(=O)N[C@@H](CCN)C(=O)N[C@H](C(=O)N[C@H](CO)C(=O)N[C@H]1CCNC(=O)[C@H]([C@@H](C)O)NC(=O)[C@H](CCN)NC(=O)[C@H](CCN)NC(=O)[C@H]([C@@H](C)O)NC(=O)[C@@H](Cc2ccccc2)NC(=O)[C@H](CCCN)NC1=O)[C@@H](C)O [Compound 66] (X1-[Dab]T[dS][Dab][Orn][dF]T[Dab][Dab]T; lactam 4-C)	0.25 µg/mL

Field: MIC (Acinetobacter baumannii NCTC 13304 (OXA-27)). Entry: CC(C)CCCCC(=O)N[C@@H](CCN)C(=O)N[C@H](C(=O)N[C@H](CCN)C(=O)N[C@H]1CCNC(=O)[C@H]([C@@H](C)O)NC(=O)[C@H](CCN)NC(=O)[C@H](CCN)NC(=O)[C@H]([C@@H](C)O)NC(=O)[C@@H](Cc2ccccc2)NC(=O)[C@H](CCN)NC1=O)[C@@H](C)O [Compound 12] ({Heptanoyl(6-Me)}-[Dab]T[dDab][Dab][Dab][dF]T[Dab][Dab]T; lactam 4-C)
≤0.03 µg/mL

Field: MIC (Acinetobacter baumannii NCTC 13304 (OXA-27)). Entry: CCCCCCC(=O)N[C@@H](CCN)C(=O)N[C@H](C(=O)N[C@@H](CN)C(=O)N[C@H]1CCNC(=O)[C@H]([C@@H](C)O)NC(=O)[C@H](CCN)NC(=O)[C@H](CCN)NC(=O)[C@H]([C@@H](C)O)NC(=O)[C@@H](Cc2ccccc2)NC(=O)[C@H](CCN)NC1=O)[C@@H](C)O [Compound 9] (Heptanoyl-[Dab]T[Dap][Dab][Dab][dF]T[Dab][Dab]T; lactam 4-C)
0.03 µg/mL

Field: MIC (Acinetobacter baumannii NCTC 13304 (OXA-27)). Entry: CC[C@H](C)CCCCC(=O)N[C@@H](CCN)C(=O)N[C@H](C(=O)N[C@@H](CCN)C(=O)N[C@H]1CCNC(=O)[C@H]([C@@H](C)O)NC(=O)[C@H](CCN)NC(=O)[C@H](CCN)NC(=O)[C@H]([C@@H](C)O)NC(=O)[C@@H](Cc2ccccc2)NC(=O)[C@H](CCN)NC1=O)[C@@H](C)O [Compound 16] (X1-[Dab]T[Dab][Dab][Dab][dF]T[Dab][Dab]T; lactam 4-C)
≤0.03 µg/mL

Field: MIC (Acinetobacter baumannii NCTC 13304 (OXA-27)). Entry: CC[C@H](C)CCCCC(=O)N[C@@H](CCN)C(=O)N[C@H](C(=O)N[C@H](CCCN)C(=O)N[C@H]1CCNC(=O)[C@H]([C@@H](C)O)NC(=O)[C@H](CCN)NC(=O)[C@H](CCN)NC(=O)[C@H]([C@@H](C)O)NC(=O)[C@@H](Cc2ccccc2)NC(=O)[C@H](CCN)NC1=O)[C@@H](C)O [Compound 21] (X1-[Dab]T[dOrn][Dab][Dab][dF]T[Dab][Dab]T; lactam 4-C)
0.06 µg/mL

Field: MIC (Acinetobacter baumannii NCTC 13304 (OXA-27)). Entry: CCCCCCC(=O)N[C@@H](CCN)C(=O)N[C@H](C(=O)N[C@@H](CCCN)C(=O)N[C@H]1CCNC(=O)[C@H]([C@@H](C)O)NC(=O)[C@H](CCN)NC(=O)[C@H](CCN)NC(=O)[C@H]([C@@H](C)O)NC(=O)[C@@H](Cc2ccccc2)NC(=O)[C@H](CCN)NC1=O)[C@@H](C)O [Compound 29] (Heptanoyl-[Dab]T[Orn][Dab][Dab][dF]T[Dab][Dab]T; lactam 4-C)
0.06 µg/mL

Field: MIC (Acinetobacter baumannii NCTC 13304 (OXA-27)). Entry: CCCCCCC(=O)N[C@@H](CCN)C(=O)N[C@H](C(=O)N[C@H](CCCN)C(=O)N[C@H]1CCNC(=O)[C@H]([C@@H](C)O)NC(=O)[C@H](CCN)NC(=O)[C@H](CCN)NC(=O)[C@H]([C@@H](C)O)NC(=O)[C@@H](Cc2ccccc2)NC(=O)[C@H](CCN)NC1=O)[C@@H](C)O [Compound 24] (Heptanoyl-[Dab]T[dOrn][Dab][Dab][dF]T[Dab][Dab]T; lactam 4-C)
0.06 µg/mL
